- testedOn: T1, human CD30 (commercial, conjugated to digoxigenin) (human, UniProt P28908 19-379, limits assumed, conjugated to digoxigenin (DIG))
- T1 sequence (looked up): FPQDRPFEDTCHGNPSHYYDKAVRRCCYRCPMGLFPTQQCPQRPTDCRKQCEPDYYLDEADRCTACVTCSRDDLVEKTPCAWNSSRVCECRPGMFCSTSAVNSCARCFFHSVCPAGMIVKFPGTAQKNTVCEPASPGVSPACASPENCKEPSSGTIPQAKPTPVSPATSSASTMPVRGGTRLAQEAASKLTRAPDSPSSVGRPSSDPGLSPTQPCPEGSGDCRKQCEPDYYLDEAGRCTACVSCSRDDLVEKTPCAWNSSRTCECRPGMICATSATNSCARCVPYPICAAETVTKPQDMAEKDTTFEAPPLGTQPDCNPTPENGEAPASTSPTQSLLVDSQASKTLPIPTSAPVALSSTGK
- methodSummary: AlphaScreen competition vs biotin-WT AC10
# pIC50 annotations
The meaning of pIC50 here: minus log10 of the concentration in molar units.

AC10 H1/L3 full length antibody (antibody, V domains shown) VH: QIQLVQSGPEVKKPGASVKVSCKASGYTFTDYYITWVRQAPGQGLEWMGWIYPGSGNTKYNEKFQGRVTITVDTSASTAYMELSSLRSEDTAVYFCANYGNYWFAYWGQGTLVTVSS VL: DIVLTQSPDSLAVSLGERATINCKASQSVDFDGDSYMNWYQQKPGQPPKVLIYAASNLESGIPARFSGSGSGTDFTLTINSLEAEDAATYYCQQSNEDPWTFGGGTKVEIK | 7.76
AC10 H0/L3 full length antibody (antibody, V domains shown) VH: QIQLQQSGPEVVKPGASVKISCKASGYTFTDYYITWVKQKPGQGLEWIGWIYPGSGNTKYNEKFKGKATLTVDTSSSTAFMQLSSLTSEDTAVYFCANYGNYWFAYWGQGTQVTVSA VL: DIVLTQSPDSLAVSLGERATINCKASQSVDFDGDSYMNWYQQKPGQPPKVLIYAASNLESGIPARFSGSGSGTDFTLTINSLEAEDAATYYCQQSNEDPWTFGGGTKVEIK | 8.34

Note: attention shifts to another entry.
**Q:** Endpoint output: pIC50 of AC10 H0/L1 full length antibody (antibody, V domains shown) VH: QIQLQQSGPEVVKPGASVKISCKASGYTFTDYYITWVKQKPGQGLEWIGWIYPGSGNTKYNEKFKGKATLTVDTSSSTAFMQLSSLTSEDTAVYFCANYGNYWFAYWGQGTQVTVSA VL: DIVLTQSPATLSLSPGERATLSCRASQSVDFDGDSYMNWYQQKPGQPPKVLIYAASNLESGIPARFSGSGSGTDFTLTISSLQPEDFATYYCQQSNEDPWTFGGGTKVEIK . Value?
**A:** 8.28
